Test target: Quinolone resistance protein NorA (Staphylococcus aureus)
Test name: Inhibition of norA in wild type Staphylococcus aureus SA1199 expressing assessed as potentiation of ciprofloxacin MIC by checkerboard assay
Active and inactive are the calls of the source. No cut-off for these calls is given here.

Molecule	Test target	inhibition
Cc1ccc(-c2cc(C(F)(F)F)nn2-c2ccc(S(N)(=O)=O)cc2)cc1 [CELECOXIB]	Quinolone resistance protein NorA (Staphylococcus aureus)	inactive
Fc1ccc([C@@H]2CCNC[C@H]2COc2ccc3c(c2)OCO3)cc1 [PAROXETINE]	Quinolone resistance protein NorA (Staphylococcus aureus)	inactive
COC(=O)[C@H]1[C@H]2C[C@@H]3c4[nH]c5cc(OC)ccc5c4CCN3C[C@H]2C[C@@H](OC(=O)c2cc(OC)c(OC)c(OC)c2)[C@@H]1OC [RESERPINE]	Quinolone resistance protein NorA (Staphylococcus aureus)	inactive
O=[N+]([O-])c1ccc(-n2nc(-c3ccc(Cl)cc3)c3c2-c2ccccc2S(=O)(=O)N3)cc1	Quinolone resistance protein NorA (Staphylococcus aureus)	inactive

src = ChEMBL document CHEMBL2046274
